- ASSAY_METHOD_TEXT: Compound was tested for the inhibition of hemagglutinination when incorporated into liposomes (Hemagglutinination inhibition (HAI) assay); no inhibition took place
pKi: −log10 of the molar value.
TEST_READOUT: pKi

Output pKi of CCCCCCCCCCCCCC(=O)NC1C(O)CC(OC)(C(=O)O)OC1[C@H](O)[C@H](O)CO (stereo partly specified)
< 3.00

---

- ASSAY_METHOD_TEXT: Compound was tested for its ability to displace a fluorescent ligand from the active site of bromelaine-cleaved hemagglutininin (BHA)
- Design: species or system Gallus gallus
TEST_READOUT: Kd (µM)
Write the answer as a number in µM, unit excluded.

Respond only with Kd recorded for COC(=O)C1(OC)CC(O)C(NC(C)=O)C([C@H](O)[C@H](O)CO)O1 (stereo partly specified)
2800
